- Tested on: S. Newport CVM 40115 (cmy 2)
- Format: cell-based, Salmonella
Where a SMILES comes first, the peptide text is derived from it. Bridges are numbered along the chain shown (N, C = ends). [ ]: non-standard residue; d: D form. The star is where a group is joined. Pentadecanoyl = CCCCCCCCCCCCCCC(=O)*; dOrn = NCCC[C@@H](N)C(=O)O
assayEndpoint: MIC (µg/mL)
Unit µg/mL implied. Number only.

Inquiry: Missing value: MIC, S. Newport CVM 40115 (cmy 2), entry CCCCCCCCCCCCCCC(=O)N[C@H](CCCN)C(=O)N[C@H](C(=O)N[C@@H]1C(=O)N[C@H](CCCN)C(=O)N[C@@H](CO)C(=O)N[C@@H](Cc2ccc(O)cc2)C(=O)N[C@H](CCCCN)C(=O)N[C@H](CO)C(=O)N[C@@H]([C@@H](C)CC)C(=O)N2CCC[C@H]2C(=O)N[C@@H]([C@@H](C)CC)C(=O)N2CCC[C@H]2C(=O)N[C@@H]([C@@H](C)CC)C(=O)O[C@@H]1C)C(C)C [Compound B] (Pentadecanoyl-[dOrn]VT[dOrn]SY[dK][dS]IPIPI; ester 3-C; N-terminus assumed) . Fill in?
Reply text: 16

###

- Test system: S. Keur massar CVM 40135 (shv12)
- Assay type: cell-based, Salmonella
Where a SMILES comes first, the peptide text is derived from it. Bridges are numbered along the chain shown (N, C = ends). [ ]: non-standard residue; d: D form. The star is where a group is joined. Pentadecanoyl = CCCCCCCCCCCCCCC(=O)*; Tridecanoyl = CCCCCCCCCCCCC(=O)*; Undecanoyl = CCCCCCCCCCC(=O)*; dOrn = NCCC[C@@H](N)C(=O)O
assayEndpoint: MIC (µg/mL)
API: value field is a number in µg/mL; no unit string.

Here is how some compounds turned out for MIC.
{"columns": ["compound", "unitOfMeasurement", "MIC"],
 "data": [
  ["CCCCCCCCCCCCC(=O)N[C@H](CCCN)C(=O)N[C@H](C(=O)N[C@@H]1C(=O)N[C@H](CCCN)C(=O)N[C@@H](CO)C(=O)N[C@@H](Cc2ccc(O)cc2)C(=O)N[C@@H](CCCCN)C(=O)N[C@H](CO)C(=O)N[C@@H]([C@@H](C)CC)C(=O)N2CCC[C@H]2C(=O)N[C@@H]([C@@H](C)CC)C(=O)N2CCC[C@H]2C(=O)N[C@@H]([C@@H](C)CC)C(=O)O[C@@H]1C)C(C)C [Compound A L-form] (Tridecanoyl-[dOrn]VT[dOrn]SYK[dS]IPIPI; ester 3-C)", "µg/mL", 16],
  ["CCCCCCCCCCC(=O)N[C@H](CCCN)C(=O)N[C@H](C(=O)N[C@@H]1C(=O)N[C@H](CCCN)C(=O)N[C@@H](CO)C(=O)N[C@@H](Cc2ccc(O)cc2)C(=O)N[C@H](CCCCN)C(=O)N[C@H](CO)C(=O)N[C@@H]([C@@H](C)CC)C(=O)N2CCC[C@H]2C(=O)N[C@@H]([C@@H](C)CC)C(=O)N2CCC[C@H]2C(=O)N[C@@H]([C@@H](C)CC)C(=O)O[C@@H]1C)C(C)C [Compound C] (Undecanoyl-[dOrn]VT[dOrn]SY[dK][dS]IPIPI; ester 3-C; N-terminus assumed)", "µg/mL", 16],
  ["CCCCCCCCCCCCCCC(=O)N[C@H](CCCN)C(=O)N[C@H](C(=O)N[C@@H]1C(=O)N[C@H](CCCN)C(=O)N[C@@H](CO)C(=O)N[C@@H](Cc2ccc(O)cc2)C(=O)N[C@H](CCCCN)C(=O)N[C@H](CO)C(=O)N[C@@H]([C@@H](C)CC)C(=O)N2CCC[C@H]2C(=O)N[C@@H]([C@@H](C)CC)C(=O)N2CCC[C@H]2C(=O)N[C@@H]([C@@H](C)CC)C(=O)O[C@@H]1C)C(C)C [Compound B] (Pentadecanoyl-[dOrn]VT[dOrn]SY[dK][dS]IPIPI; ester 3-C; N-terminus assumed)", "µg/mL", 32],
  ["CCCCCCCCCCCCC(=O)N[C@H](CCCN)C(=O)N[C@H](C(=O)N[C@@H]1C(=O)N[C@H](CCCN)C(=O)N[C@@H](CO)C(=O)N[C@@H](Cc2ccccc2)C(=O)N[C@H](CCCCN)C(=O)N[C@H](CO)C(=O)N[C@@H]([C@@H](C)CC)C(=O)N2CCC[C@H]2C(=O)N[C@@H]([C@@H](C)CC)C(=O)N2CCC[C@H]2C(=O)N[C@@H]([C@@H](C)CC)C(=O)O[C@@H]1C)C(C)C [Variant D] (Tridecanoyl-[dOrn]VT[dOrn]SF[dK][dS]IPIPI; ester 3-C; N-terminus assumed)", "µg/mL", 16]
]}

Inquiry: Which MIC reading was recorded for the compound CCCCCCCCCCCCC(=O)N[C@H](CCCN)C(=O)N[C@H](C(=O)N[C@@H]1C(=O)N[C@H](CCCN)C(=O)N[C@@H](CO)C(=O)N[C@@H](Cc2ccc(O)cc2)C(=O)N[C@H](CCCCN)C(=O)N[C@H](CO)C(=O)N[C@@H]([C@@H](C)CC)C(=O)N2CCC[C@H]2C(=O)N[C@@H]([C@@H](C)CC)C(=O)N2CCC[C@H]2C(=O)N[C@@H]([C@@H](C)CC)C(=O)O[C@@H]1C)C(C)C [Compound A D-form] (Tridecanoyl-[dOrn]VT[dOrn]SY[dK][dS]IPIPI; ester 3-C) ?
Reply text: 16

###

Measured MIC values are reported for all entries that follow.
- Test system: S. aureus 10
- testSummary: microbe, parasite or virus in culture
- Type: cell-based, Staphylococcus aureus
- settings: 10
- Text: The same MIC assay as in Example 6 was used to determine the antimicrobial susceptibility of Compound A, L-form (FIG. 15), and several variants. One variant was Compound A, D-form, with D-Lysine at position 7. Compound B is a variant in the fatty acid chain, with a fatty acid chain composition of C15H29O, and having D-Lys at position 7. Compound C is a variant in the fatty acid chain with a fatty acid chain composition of C11H21O, and having D-Lys at position 7. […]
Where a SMILES comes first, the peptide text is derived from it. Bridges are numbered along the chain shown (N, C = ends). [ ]: non-standard residue; d: D form. The star is where a group is joined. Pentadecanoyl = CCCCCCCCCCCCCCC(=O)*; Tridecanoyl = CCCCCCCCCCCCC(=O)*; Undecanoyl = CCCCCCCCCCC(=O)*; dOrn = NCCC[C@@H](N)C(=O)O
Your answer should be a plain number; it is taken to be in µg/mL.

See these solved cases before continuing.
{"columns": ["compound", "unitOfMeasurement", "MIC"],
 "data": [
  ["CCCCCCCCCCCCC(=O)N[C@H](CCCN)C(=O)N[C@H](C(=O)N[C@@H]1C(=O)N[C@H](CCCN)C(=O)N[C@@H](CO)C(=O)N[C@@H](Cc2ccc(O)cc2)C(=O)N[C@H](CCCCN)C(=O)N[C@H](CO)C(=O)N[C@@H]([C@@H](C)CC)C(=O)N2CCC[C@H]2C(=O)N[C@@H]([C@@H](C)CC)C(=O)N2CCC[C@H]2C(=O)N[C@@H]([C@@H](C)CC)C(=O)O[C@@H]1C)C(C)C [Compound A D-form] (Tridecanoyl-[dOrn]VT[dOrn]SY[dK][dS]IPIPI; ester 3-C)", "µg/mL", 8],
  ["CCCCCCCCCCCCC(=O)N[C@H](CCCN)C(=O)N[C@H](C(=O)N[C@@H]1C(=O)N[C@H](CCCN)C(=O)N[C@@H](CO)C(=O)N[C@@H](Cc2ccccc2)C(=O)N[C@H](CCCCN)C(=O)N[C@H](CO)C(=O)N[C@@H]([C@@H](C)CC)C(=O)N2CCC[C@H]2C(=O)N[C@@H]([C@@H](C)CC)C(=O)N2CCC[C@H]2C(=O)N[C@@H]([C@@H](C)CC)C(=O)O[C@@H]1C)C(C)C [Variant D] (Tridecanoyl-[dOrn]VT[dOrn]SF[dK][dS]IPIPI; ester 3-C; N-terminus assumed)", "µg/mL", 8],
  ["CCCCCCCCCCC(=O)N[C@H](CCCN)C(=O)N[C@H](C(=O)N[C@@H]1C(=O)N[C@H](CCCN)C(=O)N[C@@H](CO)C(=O)N[C@@H](Cc2ccc(O)cc2)C(=O)N[C@H](CCCCN)C(=O)N[C@H](CO)C(=O)N[C@@H]([C@@H](C)CC)C(=O)N2CCC[C@H]2C(=O)N[C@@H]([C@@H](C)CC)C(=O)N2CCC[C@H]2C(=O)N[C@@H]([C@@H](C)CC)C(=O)O[C@@H]1C)C(C)C [Compound C] (Undecanoyl-[dOrn]VT[dOrn]SY[dK][dS]IPIPI; ester 3-C; N-terminus assumed)", "µg/mL", 8]
]}

Could you now look at the following compound, please?
Inquiry: So what's the measured MIC for this one? CCCCCCCCCCCCCCC(=O)N[C@H](CCCN)C(=O)N[C@H](C(=O)N[C@@H]1C(=O)N[C@H](CCCN)C(=O)N[C@@H](CO)C(=O)N[C@@H](Cc2ccc(O)cc2)C(=O)N[C@H](CCCCN)C(=O)N[C@H](CO)C(=O)N[C@@H]([C@@H](C)CC)C(=O)N2CCC[C@H]2C(=O)N[C@@H]([C@@H](C)CC)C(=O)N2CCC[C@H]2C(=O)N[C@@H]([C@@H](C)CC)C(=O)O[C@@H]1C)C(C)C [Compound B] (Pentadecanoyl-[dOrn]VT[dOrn]SY[dK][dS]IPIPI; ester 3-C; N-terminus assumed)
Reply text: 4

These data points were gathered from patent US10906940B2.
